Target: MMP13 (Homo sapiens)
Property: IC50

As a guide, the following entries are already answered.
| Compound | Value Observed |
| --- | --- |
| O=C(CN1CCCCC1)N1CC2CCC(C(=O)NO)(C1)N2S(=O)(=O)c1cc(F)c(Oc2ccc(Cl)cc2)c(F)c1 (centres unmarked) | 1 to 10 µM |
| COCCOC(=O)N1CC2CCC(C(=O)NO)(C1)N2S(=O)(=O)c1ccc(Oc2ccc(F)cc2)nc1 (centres unmarked) | 0.05 to 1 µM |
| COCCOC(=O)N1CC2CCC(C(=O)NO)(C1)N2S(=O)(=O)N1CCC(Oc2ccncc2)CC1 (centres unmarked) | 0.05 to 1 µM |
| COCCOC(=O)N1CC2CCC(C(=O)NO)(C1)N2S(=O)(=O)c1ccc(OCc2ccc(F)cc2Cl)cc1 (centres unmarked) | 1 to 10 µM |
| COCCOC(=O)N1CC2CCC(C(=O)NO)(C1)N2S(=O)(=O)N1CCC(Oc2ccc(Cl)cc2)CC1 (centres unmarked) | < 0.05 µM |
| COCCOC(=O)N1CC2CCC(C(=O)NO)(C1)N2S(=O)(=O)c1ccc(Oc2ccc(F)cc2)c(F)c1 (centres unmarked) | < 0.05 µM |

Ask: Please indicate recorded IC50 of O=C(CN1CCOCC1)N1CC2CCC(C(=O)NO)(C1)N2S(=O)(=O)c1cc(F)c(Oc2ccc(Cl)cc2)c(F)c1 (centres unmarked) measured with MMP13 (Homo sapiens).
Reply: 1 to 10 µM

Ask: Send back MMP13 (Homo sapiens) IC50 of COCCOC(=O)N1CC2CCC(C(=O)NO)(C1)N2C(=O)c1cc(F)c(Oc2ccc(Cl)cc2)c(F)c1 (centres unmarked) only.
Reply: > 10 µM

----------
Protein target, amino acids: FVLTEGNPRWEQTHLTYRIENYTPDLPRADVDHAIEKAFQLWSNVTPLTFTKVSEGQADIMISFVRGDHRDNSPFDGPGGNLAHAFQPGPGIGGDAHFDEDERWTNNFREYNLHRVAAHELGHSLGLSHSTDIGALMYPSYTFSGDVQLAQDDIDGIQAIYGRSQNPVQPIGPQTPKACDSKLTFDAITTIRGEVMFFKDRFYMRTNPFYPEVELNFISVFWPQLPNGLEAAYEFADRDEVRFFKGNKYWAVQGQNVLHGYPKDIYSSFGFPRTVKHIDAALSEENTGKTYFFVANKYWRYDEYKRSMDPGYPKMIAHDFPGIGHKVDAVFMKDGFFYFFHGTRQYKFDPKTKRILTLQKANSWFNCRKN
pIC50: −log10 of the molar value.
Property: pIC50

Ask: Please give the documented pIC50 of COCCOC(=O)N1CC2CCC(C(=O)NO)(C1)N2S(=O)(=O)N1CCC(Oc2ccc(F)cn2)CC1 (stereo not shown)
Reply: < 5.00

----------
Consider compounds characterized by their IC50 with MMP9 (Homo sapiens, UniProt P14780).
Sequence (P14780 94-707): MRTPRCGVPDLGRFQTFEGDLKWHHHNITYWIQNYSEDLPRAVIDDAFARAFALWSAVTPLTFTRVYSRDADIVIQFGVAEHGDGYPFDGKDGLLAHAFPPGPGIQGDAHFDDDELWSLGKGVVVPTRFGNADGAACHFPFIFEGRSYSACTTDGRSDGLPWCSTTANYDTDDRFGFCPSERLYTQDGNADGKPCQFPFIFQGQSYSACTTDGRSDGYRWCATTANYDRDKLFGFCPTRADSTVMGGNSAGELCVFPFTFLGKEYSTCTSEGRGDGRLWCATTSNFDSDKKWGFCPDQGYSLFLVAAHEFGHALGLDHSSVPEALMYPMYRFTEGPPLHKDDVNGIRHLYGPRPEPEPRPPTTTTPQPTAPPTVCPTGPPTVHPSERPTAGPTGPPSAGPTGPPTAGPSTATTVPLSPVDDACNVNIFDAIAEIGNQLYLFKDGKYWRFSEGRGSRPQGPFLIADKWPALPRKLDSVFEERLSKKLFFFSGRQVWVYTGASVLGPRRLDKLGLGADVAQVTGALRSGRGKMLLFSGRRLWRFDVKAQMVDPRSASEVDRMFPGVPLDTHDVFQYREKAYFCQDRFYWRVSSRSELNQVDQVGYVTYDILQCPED

| Compound | Property | Value Observed |
| --- | --- | --- |
| COCCOC(=O)N1CC2CCC(C(=O)NO)(C1)N2S(=O)(=O)N1CCC(Oc2ccncc2)CC1 (stereo not drawn) [Example 21] | IC50 | 50 to 1000 nM |
| O=C(N1CCCCC1)N1CC2CCC(C(=O)NO)(C1)N2S(=O)(=O)c1cc(F)c(Oc2ccc(Cl)cc2)c(F)c1 (stereo not drawn) [Example 6] | IC50 | 50 to 1000 nM |
| COCCOC(=O)N1CC2CCC(C(=O)NO)(C1)N2S(=O)(=O)c1ccc(OCc2ccc(F)cc2Cl)cc1 (stereo not drawn) [Example 15] | IC50 | 1000 to 10000 nM |
| COCCOC(=O)N1CC2CCC(C(=O)NO)(C1)N2S(=O)(=O)c1ccc(Oc2ccc(C#N)cc2)nc1 (stereo not drawn) [Example 18] | IC50 | 50 to 1000 nM |
| O=C(CN1CCOCC1)N1CC2CCC(C(=O)NO)(C1)N2S(=O)(=O)c1cc(F)c(Oc2ccc(Cl)cc2)c(F)c1 (stereo not drawn) [Example 4] | IC50 | 50 to 1000 nM |
| COCCOC(=O)N1CC2CCC(C(=O)NO)(C1)N2S(=O)(=O)c1ccc(Oc2ccc(F)cc2)c(F)c1 (stereo not drawn) [Example 5] | IC50 | < 50 nM |
| COCCOC(=O)N1CC2CCC(C(=O)NO)(C1)N2S(=O)(=O)c1ccc(NC(=O)c2ccc(OC)cc2)cc1 (stereo not drawn) [Example 17] | IC50 | 50 to 1000 nM |
| COCCOC(=O)N1C[C@@H]2CC[C@](C(=O)NO)(C1)N2S(=O)(=O)c1ccc(Oc2ccc(F)cc2)c(F)c1 [Example 31] | IC50 | 50 to 1000 nM |

Turning now to a further record.
Ask: Look up IC50 of COCCOC(=O)N1CC2CCC(C(=O)NO)(C1)N2C(=O)c1cc(F)c(Oc2ccc(Cl)cc2)c(F)c1 (stereo not drawn) [Example 34] and report it.
Reply: > 10000 nM

----------
Target: TACE (ADAM17) (Homo sapiens, UniProt P78536)
Sequence (P78536 223-474 limits assumed): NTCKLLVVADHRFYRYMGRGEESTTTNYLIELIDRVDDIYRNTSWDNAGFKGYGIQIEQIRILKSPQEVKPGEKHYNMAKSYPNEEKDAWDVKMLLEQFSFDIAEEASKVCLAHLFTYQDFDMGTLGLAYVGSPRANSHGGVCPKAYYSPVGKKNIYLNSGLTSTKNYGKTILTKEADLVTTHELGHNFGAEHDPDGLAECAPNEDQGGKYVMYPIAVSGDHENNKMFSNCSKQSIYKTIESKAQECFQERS
pIC50: −log10 of the molar value.
Property: pIC50

Ask: Complete the entry with pIC50 for COCCOC(=O)N1CC2CCC(C(=O)NO)(C1)N2S(=O)(=O)N1CCC(Oc2ccc(Cl)cc2)CC1 (stereo not shown)
Reply: 5.00 to 6.00
